Reference source for all entries: patent US8629301B2

procedure details: partition between organic layer (toluene) and aqueous layer at adjusted pH
test settings: toluene/water, pH 10
reported property: logD hydrocarbon water

- molecule: "CN[C@@H](C)Cc1ccccc1 [Methamphetamine, methamphetamine]"
  observed: 0.527

----------
procedure details: partition between organic layer (toluene) and aqueous layer at adjusted pH
test settings: toluene/water, pH 6
reported property: logD hydrocarbon water

- structure as smiles: "C[C@@H](Cc1ccccc1)N(C)Cc1ccccc1"
  reported property: "logD hydrocarbon water"
  observed: 1.87
